Taken from patent US7084111.

# Target or system: mouse melanocortin-5 receptor (mouse, UniProt P41149 1-325)
# Sequence (P41149 whole entry): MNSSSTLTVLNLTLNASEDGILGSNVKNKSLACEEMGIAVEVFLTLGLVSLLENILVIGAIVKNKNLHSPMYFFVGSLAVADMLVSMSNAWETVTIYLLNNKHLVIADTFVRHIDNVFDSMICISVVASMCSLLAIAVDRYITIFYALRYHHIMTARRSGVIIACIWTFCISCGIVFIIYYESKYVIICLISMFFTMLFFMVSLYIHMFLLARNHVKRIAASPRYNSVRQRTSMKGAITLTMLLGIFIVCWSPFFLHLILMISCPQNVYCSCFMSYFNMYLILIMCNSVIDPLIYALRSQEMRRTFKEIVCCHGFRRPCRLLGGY
# Procedure text: cell-based or functional assay
Bridges are numbered along the chain shown (N, C = ends). Where no end group is shown, it is not given here. [ ]: non-standard residue; d: D form. Nle = CCCC[C@H](N)C(=O)O; Dap = NC[C@H](N)C(=O)O
Overview of reported EC50 (agonist) across a group of binders:

Lab note: measured EC50 (agonist) of Ac-[Nle]DHRFFK-NH2 (lactam 2-7; SMILES CCCC[C@H](NC(C)=O)C(=O)N[C@H]1CC(=O)NCCCC[C@@H](C(N)=O)NC(=O)[C@H](Cc2ccccc2)NC(=O)[C@H](Cc2ccccc2)NC(=O)[C@H](CCCNC(=N)N)NC(=O)[C@H](Cc2c[nH]cn2)NC1=O) [SEQ ID NO:20 (Ac-Nle-c[Asp-His-Arg-Phe-Phe-Lys])] was > 100 µM

Entry YDHXRXNAFXY (Asp-Dpr side chain lactam bridge; Dpr; DPhe; Tic; C-terminal amide (amide resin)) [SEQ ID NO:42 (Tyr-c[Asp-His-DPhe-Arg-Tic-Asn-Ala-Phe-Dpr]-Tyr)] , EC50 (agonist) reported as 0.0427 µM

// YDWRFNAF[Dap]Y-NH2 (lactam 2-9; N-terminus assumed; SMILES C[C@@H]1NC(=O)[C@H](CC(N)=O)NC(=O)[C@H](Cc2ccccc2)NC(=O)[C@H](CCCNC(=N)N)NC(=O)[C@H](Cc2c[nH]c3ccccc23)NC(=O)[C@@H](NC(=O)[C@@H](N)Cc2ccc(O)cc2)CC(=O)NC[C@@H](C(=O)N[C@@H](Cc2ccc(O)cc2)C(N)=O)NC(=O)[C@H](Cc2ccccc2)NC1=O) [SEQ ID NO:4 (Tyr-c[Asp-Trp-Arg-Phe-Asn-Ala-Phe-Dpr]-Tyr)] : EC50 (agonist) value = > 100 µM
